Test system: SN12C
Assay: NCI tumour cell line growth inhibition, 48 h
Active and inactive are the calls of the source. No stated cut-off is given here; in the data, active = GI50 up to about 1.1 µM and inactive = higher.
Give one outcome, nothing more. List: Y = active, N = inactive

QUERY: Which result was noted for this molecule in the test: NC1=NC(c2ccc(Cl)cc2)N(c2ccc(S(=O)(=O)Nc3ncccn3)cc2)C(N)=N1 (stereo not drawn)
RESULT: N

QUERY: Which result was noted for this molecule in the test: CC1=C(/C(C)=N/NC(=O)c2ccccc2O)C(C)C(/C(C)=N/NC(=O)c2ccccc2O)=C(C)N1
RESULT: N

QUERY: Which result was noted for this molecule in the test: NC(=S)N/N=C1/C(=O)N(c2ccccc2)C(=O)C1C(=O)Nc1ccccc1 (stereo not drawn)
RESULT: N

QUERY: Which result was noted for this molecule in the test: NC(CP(=O)(O)O)C(=O)O (stereo not drawn)
RESULT: N

QUERY: Which result was noted for this molecule in the test: CCOc1cc2c(cnc3c4cc(OC)c(OC)cc4ccc23)cc1OC
RESULT: N

QUERY: Which result was noted for this molecule in the test: COc1cc2cc3c4c(cc(OC)c(OC)c4c2cc1OC)CCN3C(=O)CCC(=O)NCCCN(C)C
RESULT: N

QUERY: Which result was noted for this molecule in the test: Cc1ccc(C(=O)Nc2ccc(CP(=O)(O)O)cc2CP(=O)(O)O)cc1NC(=O)c1cccc(NC(=O)Nc2cccc(C(=O)Nc3cc(C(=O)Nc4ccc(CP(=O)(O)O)cc4CP(=O)(O)O)ccc3C)c2)c1
RESULT: N

QUERY: Which result was noted for this molecule in the test: Cc1ccc2c(c1)C(=O)C(Cc1ccccc1C(=O)O)C2 (stereo not drawn)
RESULT: N

QUERY: Which result was noted for this molecule in the test: Cc1ccc(C(=O)/C=C/c2ccccc2Cl)cc1
RESULT: N

QUERY: Which result was noted for this molecule in the test: S=C(NCc1ccccc1)N/N=C/c1ccccn1
RESULT: N

QUERY: Which result was noted for this molecule in the test: Cn1c2ccccc2n2c3ncccc3c(=S)c(C#N)c12
RESULT: N

QUERY: Which result was noted for this molecule in the test: CC1(C)CC(C2CC(C)(C)CC(C)(C)[C@H]2O)[C@@H](O)C(C)(C)C1 (stereo partly drawn)
RESULT: N

QUERY: Which result was noted for this molecule in the test: CNC(=O)OCC1=C(COC(=O)NC)C(C)N(c2ccc(OC)cc2)C1 (stereo not drawn)
RESULT: N

QUERY: Which result was noted for this molecule in the test: C/C(C[n+]1ccccc1)=N\N=C(N)N
RESULT: N

QUERY: Which result was noted for this molecule in the test: O=C(c1ccco1)N(C(=S)N1CCN(c2ccccn2)CC1)C1CCCCC1
RESULT: N

QUERY: Which result was noted for this molecule in the test: CCCC(=O)N[C@H]1CCc2cc(OC)c(OC)c(OC)c2-c2ccc(SC)c(=O)cc21
RESULT: Y

QUERY: Which result was noted for this molecule in the test: CC[C@@H](CCCC[C@@H]1CC[C@H]2CC(=O)C[C@@H]12)OC
RESULT: N

QUERY: Which result was noted for this molecule in the test: c1ccc2c(c1)nc1n2CCSC1
RESULT: N

QUERY: Which result was noted for this molecule in the test: COc1ccc(C2=NOP(c3ccccc3)(c3ccccc3)(c3ccccc3)C2)cc1
RESULT: N

QUERY: Which result was noted for this molecule in the test: C/C(=C\COP(=O)(O)OP(=O)(O)O)CCCOCc1ccccc1
RESULT: N

QUERY: Which result was noted for this molecule in the test: CC(C)(O)/C=C\P(=O)(O)O
RESULT: N

QUERY: Which result was noted for this molecule in the test: N/C(=N\c1ccc(Cl)cc1)NS(=O)(=O)c1cccc2nsnc12
RESULT: N

QUERY: Which result was noted for this molecule in the test: Cc1ccc(NC(=O)/C(Cc2cc(=O)oc3cc(O)ccc23)=N\NC(=O)C[N+](C)(C)C)cc1C
RESULT: N

QUERY: Which result was noted for this molecule in the test: CC(=O)N1c2ccccc2C2=CC3C4C(=O)N(c5ccccc5)C(=O)C4C21C1C(=O)N(c2ccccc2)C(=O)C31 (stereo not drawn)
RESULT: N

QUERY: Which result was noted for this molecule in the test: COc1ccc(-n2c3c(c4c(CN(C)C)c(O)ccc42)C(=O)c2ccccc2C3=O)cc1
RESULT: N

QUERY: Which result was noted for this molecule in the test: O=[N+]([O-])C(C(Cl)=C(Cl)Cl)=C(N(Cc1ccccc1)Cc1ccccc1)N(Cc1ccccc1)Cc1ccccc1
RESULT: N

QUERY: Which result was noted for this molecule in the test: Cn1c(S)nnc1CNc1ccc(-c2nnc(S)n2C)cc1
RESULT: N

QUERY: Which result was noted for this molecule in the test: CCCCCCc1cc2cc(C(=O)Nc3ccccc3)c(=N)oc2cc1O
RESULT: N
